# Lookup of reported kinase still bound, per cent of control keyed by entry
biological target: PIK3C2G (human) (UniProt O75747); assay: KINOMEscan competition binding; conditions: compound 10.0 µM
Sequence (O75747 whole entry, looked up): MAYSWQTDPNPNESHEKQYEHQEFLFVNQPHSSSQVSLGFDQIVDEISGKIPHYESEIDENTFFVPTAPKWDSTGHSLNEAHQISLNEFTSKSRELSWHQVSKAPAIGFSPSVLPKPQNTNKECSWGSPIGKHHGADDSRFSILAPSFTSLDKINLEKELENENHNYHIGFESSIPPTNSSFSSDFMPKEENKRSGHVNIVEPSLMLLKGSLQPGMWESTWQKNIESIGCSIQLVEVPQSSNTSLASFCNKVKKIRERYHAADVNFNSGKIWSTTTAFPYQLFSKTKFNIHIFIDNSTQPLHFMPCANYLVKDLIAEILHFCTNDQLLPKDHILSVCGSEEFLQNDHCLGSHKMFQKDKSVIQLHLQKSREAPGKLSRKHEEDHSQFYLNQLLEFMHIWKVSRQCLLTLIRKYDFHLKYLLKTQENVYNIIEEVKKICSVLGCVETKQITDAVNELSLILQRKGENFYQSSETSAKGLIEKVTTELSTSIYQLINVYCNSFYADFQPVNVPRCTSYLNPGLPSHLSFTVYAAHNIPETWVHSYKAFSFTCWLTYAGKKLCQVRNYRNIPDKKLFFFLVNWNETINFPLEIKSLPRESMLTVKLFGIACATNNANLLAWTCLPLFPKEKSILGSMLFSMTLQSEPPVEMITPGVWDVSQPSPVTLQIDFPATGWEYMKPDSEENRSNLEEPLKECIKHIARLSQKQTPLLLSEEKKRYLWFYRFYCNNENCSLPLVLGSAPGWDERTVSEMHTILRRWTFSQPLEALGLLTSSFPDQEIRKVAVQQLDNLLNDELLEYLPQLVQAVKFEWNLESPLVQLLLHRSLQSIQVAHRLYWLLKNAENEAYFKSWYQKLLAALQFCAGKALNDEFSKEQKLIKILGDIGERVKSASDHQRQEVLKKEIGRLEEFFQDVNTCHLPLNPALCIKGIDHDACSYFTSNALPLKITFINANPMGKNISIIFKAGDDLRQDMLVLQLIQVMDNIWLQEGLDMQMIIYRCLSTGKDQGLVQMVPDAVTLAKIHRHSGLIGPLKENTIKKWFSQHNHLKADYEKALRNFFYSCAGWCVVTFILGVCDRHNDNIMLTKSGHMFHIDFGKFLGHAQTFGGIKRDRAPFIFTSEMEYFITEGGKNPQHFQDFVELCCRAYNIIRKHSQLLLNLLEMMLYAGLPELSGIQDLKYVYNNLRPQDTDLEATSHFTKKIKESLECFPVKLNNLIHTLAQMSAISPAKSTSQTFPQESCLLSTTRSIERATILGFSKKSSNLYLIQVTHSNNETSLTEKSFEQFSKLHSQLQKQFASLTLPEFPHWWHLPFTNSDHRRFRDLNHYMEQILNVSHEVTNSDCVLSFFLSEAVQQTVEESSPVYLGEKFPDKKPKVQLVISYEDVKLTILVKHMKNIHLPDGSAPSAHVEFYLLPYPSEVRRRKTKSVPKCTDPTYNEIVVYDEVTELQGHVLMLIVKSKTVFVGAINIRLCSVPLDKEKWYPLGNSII
recorded endpoint: kinase still bound, per cent of control (%)

{"line notation": "COc1ccc(-c2ccc3c(N4CCOCC4)nc(N4C[C@@H](C)O[C@@H](C)C4)nc3n2)cc1CO", "assay target": "PIK3C2G (human) (UniProt O75747)", "recorded endpoint": "kinase still bound, per cent of control", "observed result": 43}
{"line notation": "CC(C)n1nc(-c2cc3cc(O)ccc3[nH]2)c2c(N)ncnc21", "assay target": "PIK3C2G (human) (UniProt O75747)", "recorded endpoint": "kinase still bound, per cent of control", "observed result": 3.4}
{"line notation": "COC(=O)Nc1ccc(-c2nc(N3CCOCC3)c3cnn(C4CCN(C(=O)OC)CC4)c3n2)cc1", "assay target": "PIK3C2G (human) (UniProt O75747)", "recorded endpoint": "kinase still bound, per cent of control", "observed result": 24}
{"line notation": "CCC(=O)N1CCN(c2ccc(-n3c(=O)ccc4cnc5ccc(-c6cnc7ccccc7c6)cc5c43)cc2C(F)(F)F)CC1", "assay target": "PIK3C2G (human) (UniProt O75747)", "recorded endpoint": "kinase still bound, per cent of control", "observed result": 11}

----------
Listing: kinase still bound, per cent of control of selected compounds
target: MAP2K4 (human) (UniProt P45985); assay: KINOMEscan competition binding; conditions: compound 10.0 µM
Sequence (P45985 whole entry, looked up): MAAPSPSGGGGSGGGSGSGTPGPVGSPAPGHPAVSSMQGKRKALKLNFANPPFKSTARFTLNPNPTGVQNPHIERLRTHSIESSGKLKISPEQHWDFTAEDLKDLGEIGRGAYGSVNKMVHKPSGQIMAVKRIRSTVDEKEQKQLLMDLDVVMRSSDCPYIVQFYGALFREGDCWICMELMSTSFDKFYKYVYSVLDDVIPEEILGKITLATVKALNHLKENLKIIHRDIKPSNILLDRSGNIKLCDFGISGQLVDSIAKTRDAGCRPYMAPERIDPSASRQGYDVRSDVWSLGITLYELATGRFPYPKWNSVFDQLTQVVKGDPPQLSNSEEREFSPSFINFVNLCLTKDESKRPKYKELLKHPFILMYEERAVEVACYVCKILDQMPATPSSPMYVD
recorded endpoint: kinase still bound, per cent of control (%)

{"line notation": "COc1ccc(-c2ccc3c(N4CCOCC4)nc(N4C[C@@H](C)O[C@@H](C)C4)nc3n2)cc1CO", "observed result": 88}
{"line notation": "CC(C)n1nc(-c2cc3cc(O)ccc3[nH]2)c2c(N)ncnc21", "observed result": 3.4}
{"line notation": "COC(=O)Nc1ccc(-c2nc(N3CCOCC3)c3cnn(C4CCN(C(=O)OC)CC4)c3n2)cc1", "observed result": 74}
{"line notation": "CCC(=O)N1CCN(c2ccc(-n3c(=O)ccc4cnc5ccc(-c6cnc7ccccc7c6)cc5c43)cc2C(F)(F)F)CC1", "observed result": 30}

----------
target: MST4 (human) (UniProt Q9P289); test: KINOMEscan competition binding; settings: compound 10.0 µM
Sequence (Q9P289 whole entry, looked up): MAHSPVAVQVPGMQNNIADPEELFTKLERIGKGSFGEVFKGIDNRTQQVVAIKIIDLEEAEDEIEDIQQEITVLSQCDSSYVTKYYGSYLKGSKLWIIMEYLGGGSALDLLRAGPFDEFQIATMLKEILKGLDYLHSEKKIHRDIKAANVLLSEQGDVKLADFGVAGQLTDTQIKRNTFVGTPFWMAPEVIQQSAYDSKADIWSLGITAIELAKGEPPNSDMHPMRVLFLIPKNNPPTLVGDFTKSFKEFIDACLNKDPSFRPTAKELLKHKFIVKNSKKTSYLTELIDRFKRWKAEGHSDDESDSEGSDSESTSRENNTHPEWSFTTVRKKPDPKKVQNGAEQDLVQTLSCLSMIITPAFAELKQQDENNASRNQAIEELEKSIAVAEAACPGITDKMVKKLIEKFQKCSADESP

{"line notation": "COC(=O)Nc1ccc(-c2nc(N3CCOCC3)c3cnn(C4CCN(C(=O)OC)CC4)c3n2)cc1", "kinase still bound, per cent of control [%]": 80}
{"line notation": "CC(C)n1nc(-c2cc3cc(O)ccc3[nH]2)c2c(N)ncnc21", "kinase still bound, per cent of control [%]": 31}
{"line notation": "CCC(=O)N1CCN(c2ccc(-n3c(=O)ccc4cnc5ccc(-c6cnc7ccccc7c6)cc5c43)cc2C(F)(F)F)CC1", "kinase still bound, per cent of control [%]": 89}
{"line notation": "COc1ccc(-c2ccc3c(N4CCOCC4)nc(N4C[C@@H](C)O[C@@H](C)C4)nc3n2)cc1CO", "kinase still bound, per cent of control [%]": 100}

----------
target: BRSK2 (human); test: KINOMEscan competition binding; conditions: compound 10.0 µM
recorded endpoint: kinase still bound, per cent of control (%)

{"line notation": "CC(C)n1nc(-c2cc3cc(O)ccc3[nH]2)c2c(N)ncnc21", "recorded endpoint": "kinase still bound, per cent of control", "observed result": 0.95}
{"line notation": "COC(=O)Nc1ccc(-c2nc(N3CCOCC3)c3cnn(C4CCN(C(=O)OC)CC4)c3n2)cc1", "recorded endpoint": "kinase still bound, per cent of control", "observed result": 100}
{"line notation": "COc1ccc(-c2ccc3c(N4CCOCC4)nc(N4C[C@@H](C)O[C@@H](C)C4)nc3n2)cc1CO", "recorded endpoint": "kinase still bound, per cent of control", "observed result": 98}
{"line notation": "CCC(=O)N1CCN(c2ccc(-n3c(=O)ccc4cnc5ccc(-c6cnc7ccccc7c6)cc5c43)cc2C(F)(F)F)CC1", "recorded endpoint": "kinase still bound, per cent of control", "observed result": 76}

----------
A collection of compounds and their measured per cent of control
molecular target: SYK (human) (UniProt P43405); conditions: compound 1.0 µM
recorded endpoint: per cent of control

{"line notation": "CCC(=O)N1CCN(c2ccc(-n3c(=O)ccc4cnc5ccc(-c6cnc7ccccc7c6)cc5c43)cc2C(F)(F)F)CC1", "assay target": "SYK (human) (UniProt P43405)", "observed result": "131%"}
{"line notation": "COC(=O)Nc1ccc(-c2nc(N3CCOCC3)c3cnn(C4CCN(C(=O)OC)CC4)c3n2)cc1", "assay target": "SYK (human) (UniProt P43405)", "observed result": "124%"}
{"line notation": "CC(C)n1nc(-c2cc3cc(O)ccc3[nH]2)c2c(N)ncnc21", "assay target": "SYK (human) (UniProt P43405)", "observed result": "89%"}
{"line notation": "COc1ccc(-c2ccc3c(N4CCOCC4)nc(N4C[C@@H](C)O[C@@H](C)C4)nc3n2)cc1CO", "assay target": "SYK (human) (UniProt P43405)", "observed result": "88%"}

----------
# kinase still bound, per cent of control per record follows
biological target: MATK (human); assay: KINOMEscan competition binding; settings: compound 10.0 µM
recorded endpoint: kinase still bound, per cent of control

{"line notation": "COC(=O)Nc1ccc(-c2nc(N3CCOCC3)c3cnn(C4CCN(C(=O)OC)CC4)c3n2)cc1", "recorded endpoint": "kinase still bound, per cent of control", "observed result": "100%"}
{"line notation": "COc1ccc(-c2ccc3c(N4CCOCC4)nc(N4C[C@@H](C)O[C@@H](C)C4)nc3n2)cc1CO", "recorded endpoint": "kinase still bound, per cent of control", "observed result": "78%"}
{"line notation": "CCC(=O)N1CCN(c2ccc(-n3c(=O)ccc4cnc5ccc(-c6cnc7ccccc7c6)cc5c43)cc2C(F)(F)F)CC1", "recorded endpoint": "kinase still bound, per cent of control", "observed result": "97%"}
{"line notation": "CC(C)n1nc(-c2cc3cc(O)ccc3[nH]2)c2c(N)ncnc21", "recorded endpoint": "kinase still bound, per cent of control", "observed result": "60%"}

----------
Each record here notes measured kinase still bound, per cent of control.
molecular target: AURKA (human) (UniProt O14965); assay: KINOMEscan competition binding; conditions: compound 10.0 µM
Sequence (O14965 whole entry, looked up): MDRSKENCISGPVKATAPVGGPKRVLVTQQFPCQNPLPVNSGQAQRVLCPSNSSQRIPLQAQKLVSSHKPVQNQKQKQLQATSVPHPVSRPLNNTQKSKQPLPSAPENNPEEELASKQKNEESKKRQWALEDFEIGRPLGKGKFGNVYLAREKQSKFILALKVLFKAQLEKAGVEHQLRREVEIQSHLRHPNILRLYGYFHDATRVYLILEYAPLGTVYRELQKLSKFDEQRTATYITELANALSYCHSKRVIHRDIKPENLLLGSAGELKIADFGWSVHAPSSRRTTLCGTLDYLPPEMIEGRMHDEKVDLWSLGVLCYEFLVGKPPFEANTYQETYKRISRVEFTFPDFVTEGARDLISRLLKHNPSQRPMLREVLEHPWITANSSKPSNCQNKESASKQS

{"line notation": "CC(C)n1nc(-c2cc3cc(O)ccc3[nH]2)c2c(N)ncnc21", "kinase still bound, per cent of control (%)": 100}
{"line notation": "COC(=O)Nc1ccc(-c2nc(N3CCOCC3)c3cnn(C4CCN(C(=O)OC)CC4)c3n2)cc1", "kinase still bound, per cent of control (%)": 85}
{"line notation": "COc1ccc(-c2ccc3c(N4CCOCC4)nc(N4C[C@@H](C)O[C@@H](C)C4)nc3n2)cc1CO", "kinase still bound, per cent of control (%)": 80}
{"line notation": "CCC(=O)N1CCN(c2ccc(-n3c(=O)ccc4cnc5ccc(-c6cnc7ccccc7c6)cc5c43)cc2C(F)(F)F)CC1", "kinase still bound, per cent of control (%)": 100}

----------
target: SIK2 (human); test: KINOMEscan competition binding; settings: compound 10.0 µM
recorded endpoint: kinase still bound, per cent of control (%)

{"line notation": "CC(C)n1nc(-c2cc3cc(O)ccc3[nH]2)c2c(N)ncnc21", "recorded endpoint": "kinase still bound, per cent of control", "display unit": "%", "observed result": 9.4}
{"line notation": "COc1ccc(-c2ccc3c(N4CCOCC4)nc(N4C[C@@H](C)O[C@@H](C)C4)nc3n2)cc1CO", "recorded endpoint": "kinase still bound, per cent of control", "display unit": "%", "observed result": 91}
{"line notation": "COC(=O)Nc1ccc(-c2nc(N3CCOCC3)c3cnn(C4CCN(C(=O)OC)CC4)c3n2)cc1", "recorded endpoint": "kinase still bound, per cent of control", "display unit": "%", "observed result": 100}
{"line notation": "CCC(=O)N1CCN(c2ccc(-n3c(=O)ccc4cnc5ccc(-c6cnc7ccccc7c6)cc5c43)cc2C(F)(F)F)CC1", "recorded endpoint": "kinase still bound, per cent of control", "display unit": "%", "observed result": 23}

----------
target: AKT3 (human); assay: KINOMEscan competition binding; details: compound 10.0 µM

{"line notation": "COc1ccc(-c2ccc3c(N4CCOCC4)nc(N4C[C@@H](C)O[C@@H](C)C4)nc3n2)cc1CO", "kinase still bound, per cent of control": "97%"}
{"line notation": "COC(=O)Nc1ccc(-c2nc(N3CCOCC3)c3cnn(C4CCN(C(=O)OC)CC4)c3n2)cc1", "kinase still bound, per cent of control": "100%"}
{"line notation": "CC(C)n1nc(-c2cc3cc(O)ccc3[nH]2)c2c(N)ncnc21", "kinase still bound, per cent of control": "29%"}
{"line notation": "CCC(=O)N1CCN(c2ccc(-n3c(=O)ccc4cnc5ccc(-c6cnc7ccccc7c6)cc5c43)cc2C(F)(F)F)CC1", "kinase still bound, per cent of control": "77%"}
